FYI, the data here is from patent US8383637B2.

Biological target: β-secretase(BACE) (Homo sapiens, UniProt P56817)
Construct: purchased Panvera
Sequence (P56817 46-501): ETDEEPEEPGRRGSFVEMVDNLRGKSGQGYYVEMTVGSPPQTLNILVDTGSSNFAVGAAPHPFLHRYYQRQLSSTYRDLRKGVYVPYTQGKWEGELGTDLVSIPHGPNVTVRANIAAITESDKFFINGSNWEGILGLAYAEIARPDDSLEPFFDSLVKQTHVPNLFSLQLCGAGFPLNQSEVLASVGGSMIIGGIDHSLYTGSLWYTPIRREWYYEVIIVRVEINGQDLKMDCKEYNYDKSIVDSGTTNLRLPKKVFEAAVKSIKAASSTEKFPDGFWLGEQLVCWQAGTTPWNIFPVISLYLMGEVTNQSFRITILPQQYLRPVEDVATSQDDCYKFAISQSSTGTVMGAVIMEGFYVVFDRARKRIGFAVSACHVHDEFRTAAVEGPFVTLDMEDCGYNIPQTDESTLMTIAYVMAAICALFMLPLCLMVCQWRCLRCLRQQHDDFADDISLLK
Test: BACE FS1% Inhibition Assay
Type: biochemical
Details: 0.3 μM test compound; FS1 substrate; read-out: % Inhibition (FS)
Recorded Endpoint: inhibition at 0.3 µM (%)

Use the examples below as a reference point.
{"Compound": "CN(C(=O)CCC(C1CCCCC1)N1Cc2cc(Oc3ccccc3)ccc2N=C1N)C1CCCC(C(=O)O)C1 (centres unmarked)", "Unit String": "%", "inhibition at 0.3 µM": 41}
{"Compound": "CCOC(=O)C1CCC(N(C)C(=O)CCC(C2CCOCC2)N2Cc3cc(Oc4ccccc4)ccc3N=C2N)CC1 (centres unmarked)", "Unit String": "%", "inhibition at 0.3 µM": 17}
{"Compound": "Cc1cc(CN(C)C(=O)CC[C@@H](C2CCCCC2)N2Cc3cc(-c4ccccc4F)ccc3N=C2N)on1", "Unit String": "%", "inhibition at 0.3 µM": 47}
{"Compound": "CN(C(=O)CC[C@@H](C1CCOCC1)N1Cc2cc(Oc3ccccc3)ccc2N=C1N)C1CCCCC1", "Unit String": "%", "inhibition at 0.3 µM": 141}
{"Compound": "CN(C(=O)CC[C@@H](C1CCCCC1)N1Cc2cc(Oc3ccccc3)ccc2N=C1N)[C@H]1CC[C@@H](C(=O)O)CC1", "Unit String": "%", "inhibition at 0.3 µM": 99}
{"Compound": "NC1=Nc2ccc(Oc3ccccc3)cc2CN1[C@@H](CCC(=O)N(Cc1ncc[nH]1)C1CCCCC1)C1CCCCC1", "Unit String": "%", "inhibition at 0.3 µM": 110}

1: COC(=O)[C@@H](COCc1ccccc1)N(C)C(=O)CC[C@@H](C1CCOCC1)N1Cc2cc(Oc3ccccc3)ccc2N=C1N
2: CN(C(=O)CC[C@@H](C1CCCCC1)N1Cc2c(cccc2Oc2ccccc2)N=C1N)C1CCCCC1
3: CN(C(=O)CC[C@@H]([C@H]1CC[C@@H](O)CC1)N1Cc2cc(Oc3ccccc3)ccc2N=C1N)C1CCCCC1
Order each entry by recorded inhibition at 0.3 µM, climbing from the minimum. Please express your ranking as an ordered list of the labels.
2, 3, 1
(2: 13%, 3: 56%, 1: 109%)

A: NC1=Nc2ccc(Oc3ccccc3)cc2CN1[C@@H](CCC(=O)N[C@@H](CO)C(=O)O)C1CCOCC1
B: COC(=O)[C@H](COCc1ccccc1)N(C)C(=O)CC[C@@H](C1CCOCC1)N1Cc2cc(Oc3ccccc3)ccc2N=C1N
Form field 'greater inhibition at 0.3 µM' accepts A or B ; which applies? Provide the label of your selected option as the answer.
B
(B: 97%, A: 46%)
